FYI, the data here is from PubChem BioAssay AID179.

- Tested on: CEM cells HIV-1 protection, formazan growth assay
- procedureSummary: NCI AIDS Antiviral Assay
List of EC50 values.

Below: 5 compounds and their reported EC50.
N/N=C1/CCCc2nonc21 :: > 200 µM
N[C@H](CSSC[C@@H](N)C(=O)Nc1ccc2ccccc2c1)C(=O)Nc1ccc2ccccc2c1 :: > 200 µM
NC(N)=Nc1ccc(-c2ccc(N=C(N)N)cc2)cc1 :: > 200 µM
CCCn1c(SCC)c2ccccc2c1-c1nc(F)nc(F)n1 :: > 8.13 µM
O=[N+]([O-])c1ccc2[nH]c(=S)[nH]c(=S)c2c1 :: > 200 µM

Kindly note: CEM cells HIV-1 protection, formazan growth assay, C[P+]1(c2ccccc2)CCC(N)=C(C#N)C1 (stereo not drawn) , EC50 value reported: > 1070 µM

CEM cells HIV-1 protection, formazan growth assay assay, compound COc1ccc(-c2[nH]c3ccccc3c2-c2ccc(OC)cc2)cc1 , recorded EC50 = > 200 µM

Measured EC50 for this entry Nc1nc2c(ncn2CC2COC(CO)O2)c(=O)[nH]1 (stereo not drawn) on CEM cells HIV-1 protection, formazan growth assay: > 468 µM

Tested system CEM cells HIV-1 protection, formazan growth assay; EC50 recorded for Cc1ccccc1C1N=C2Oc3ccccc3C=C2C(=O)N1 (stereo not drawn) was > 100 µM

Record O=C(O)c1ccccc1CC(Cc1ccc2c(c1)CCC2)C(=O)O (stereo not drawn) ; system CEM cells HIV-1 protection, formazan growth assay; EC50 = > 200 µM

Record O=C(/C=C\c1ccc(Cl)c(Cl)c1)c1ccccc1 / CEM cells HIV-1 protection, formazan growth assay, EC50 recorded as > 200 µM

Item: Cc1ccc(C)c2sc3cc(=O)ccc-3nc12 | System: CEM cells HIV-1 protection, formazan growth assay | EC50: > 107 µM

Value sought: EC50, system CEM cells HIV-1 protection, formazan growth assay, item CN1C2Cc3cc4c(cc3[C@@]23Cc2ccc5c(c2[C@@H]1O3)OCO5)OCO4 (stereo partly drawn) . Result: > 200 µM

Let me check: O=C(O)C1OC(n2cc([N+](=O)[O-])c(=O)[nH]c2=O)C(O)C1O (stereo not drawn) , system CEM cells HIV-1 protection, formazan growth assay, measured EC50 is > 200 µM
